- assayed-system: Lin28_ZKD (Homo sapiens)
- Construct: construct encoding amino acids 124–186 of human Lin28; His6; made in house; host or cells: Escherichia coli BL21 (DE3) Codon+ (RIL)
- Sequence (Q9H9Z2 124-186): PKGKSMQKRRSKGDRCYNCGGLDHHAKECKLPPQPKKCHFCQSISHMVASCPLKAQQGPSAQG
- procedure-summary: Fluorescence polarization titration, Lin28_ZKD binding to preE-let-7f-1-FAM
- measurement-context: Lin28_ZKD titrated into FAM-labeled preE-let-7, 10 nM; 10 mM HEPES, 150 mM NaCl, pH 7.4; read-out: K D of the Lin28_ZKD/let7FAM interaction
Oligonucleotides are written 5' to 3', each unit as a sugar letter and its base; * is a phosphorothioate linkage, no mark a phosphodiester; rarer units and linkages stand in square brackets, end groups in braces. Plain capitals give the bases only. {FAM} = fluorescein (FAM) label; r = 2'-OH (RNA)
metric-name: Kd (nM)
Give bare numbers, in nM.

Look up and state reported Kd for Let7FAM: FAM_GGGGUAGUGAUUU UACCCUGUUCAGGAGAU, PO-RNA; fluorescent probe ({FAM}-rGrGrGrGrUrArGrUrGrArUrUrUrUrArCrCrCrUrGrUrUrCrArGrGrArGrArU)
27
